B1: CPEB3 Ribozyme (parent)
chain: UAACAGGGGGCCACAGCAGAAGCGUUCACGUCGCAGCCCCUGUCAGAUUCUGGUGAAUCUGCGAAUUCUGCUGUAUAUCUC

Variants of: B1
Assay: self-cleavage, relative activity (ratio to wild type); higher = more cleavage; in vitro, sequencing
self-cleavage vs 0.2: at or above is MET, below is NOT MET.

Use these answered entries as a reference point.
1. U43A A45G = MET
2. U60C C79G = MET
3. A5G A35G = MET
4. C23U U54C = NOT MET
5. U31C U49C = MET
6. C37G A77U = MET
7. A21C U58A = NOT MET

Moving on to another variant below.
Query: Could you verify whether the entry C4A U31A shows self-cleavage of no less than 0.2?
Result: MET
